# assay.target: Human Fc (human)
# protocol: ELISA; negative control
measured.endpoint: optical density
# do not omit the unit; it follows the number

Take a look at these entries with their results.
[
  {
    "binder": "365_C12 (antibody, V domains shown) VH: EVQLLESGGGLVQPGGSLRLSCAASGFTFSSYGMNWVRQAPGKGLEWVAGINYNSGYKSYADSVKGRFTISRDNSKNTLYLQMNSLRAEDTAVYYCARSANWHDTALDYWGQGTLVTVSS VL: DIQMTQSPSSLSASVGDRVTITCRASQSIVSYVNWYQQKPGKAPKLVIYAVTSLASGVPSRFSGSGSGTDFTLTISSLQPEDFATYYCQQSYDTPLTFGGGTKVEIK",
    "experimental.result": "0.332 OD"
  },
  {
    "binder": "365_C01 (antibody, V domains shown) VH: EVQLLESGGGLVQPGGSLRLSCAASGFTFDSYGMNWVRQAPGKGLEWVSSINYNSGYKSYADSVKGRFTISRDNSKNTLYLQMNSLRAEDTAVYYCARSANWHDTHLDYWGQGTLVTVSS VL: DIQMTQSPSSLSASVGDRVTITCRASQSIVSYLNWYQQKPGKAPKLVIYAVTSRASGVPSRFSGSGSGTDFTLTISSLQPEDFATYYCQQSYESPLTFGGGTKVEIK",
    "experimental.result": "0.376 OD"
  }
]

Now examine the next entry.
Endpoint output: optical density of 373_B09 (antibody, V domains shown) VH: EVQLLESGGGLVQPGGSLRLSCAASGFTFDSYSMNWVRQAPGKGLEWVSGINYNGGYKSYADSVKGRFTISRDNSKNTLYLQMNSLRAEDTAVYYCARGATWHDTHLDYWGQGTLVTVSS VL: DIQMTQSPSSLSASVGDRVTITCRASQSILSYLNWYQQKPGKAPKLVIYAATSLASGVPSRFSGSGSGTDFTLTISSLQPEDFATYYCQQSYETPLTFGGGTKVEIK . Value? 0.172 OD
